All values here come from PubChem BioAssay (NCI).

system: OVCAR-5 ovarian; test: NCI tumour cell line growth inhibition, 48 h
readout.label: TGI

INSERT INTO results (compound, value_measured) VALUES
  ('COc1ccc(/C=C2\CCC/C(=C\c3ccc(O)c(CN4CCCCC4)c3)C2=O)cc1', '61.3 µM'),
  ('Cn1c(NCC(O)CN2CCCC2)cc(=O)n(C)c1=O (stereo unspecified)', '> 100 µM'),
  ('COC(=O)C1=C(OC(=O)/C=C/c2ccc(Cl)cc2)C(C(=O)OC)[C@@]2(O)[C@@H](C(=O)OC)[C@H](C)C[C@@H]1[C@@H]2C(=O)OC (stereo partly specified)', '81.7 µM'),
  ('O=C(O)CC(Sc1ccccc1)c1ccccc1 (stereo unspecified)', '> 100 µM');

Parameters: items (list). Returns: TGI for each item.
1. CCOC(=O)C(=O)/C(=C/N1C(=O)CC(=O)NC1=S)C(=O)OCC
2. COc1ccc(C2C(C)C(=O)C(C)C(c3ccc(OC)cc3)N2N=O)cc1 (stereo unspecified)
3. COc1cc([N+](=O)[O-])c(OC)cc1-c1nc2sc(Cl)cn2c1/C=N/NC1=NCCN1
4. NC12CCC(CC1=O)C2 (stereo unspecified)
5. CCN(CC)CCNc1ccc2nnn3c4ccc(O)cc4c(=O)c1c23

**Result**
1: > 100 µM; 2: > 977 µM; 3: 2.3 µM; 4: > 100 µM; 5: 22.4 µM

Parameters: items (list). Returns: TGI for each item.
1. Cc1ccc(S(=O)OCC23CC4CC(CC(C4)C2)C3)cc1 (stereo unspecified)
2. C=C(C(=C)P(=S)(c1ccccc1)c1ccccc1)P(=S)(c1ccccc1)c1ccccc1

**Result**
> 100 µM
> 100 µM

Parameters: items (list). Returns: TGI for each item.
1. CSc1nc2c(ncn2C2OCC(O)C(O)C2O)c(=O)n1C (stereo unspecified)
2. CCOC(=O)C(C(=S)SC)c1nn2c(=O)cc(C)nc2s1 (stereo unspecified)

**Result**
1: > 100 µM; 2: 38.7 µM

Parameters: items (list). Returns: TGI for each item.
1. CC(=O)Oc1ccc(/C(=C(\C)c2ccc(Cl)cc2)c2ccc(OCCN3CCCCC3)cc2)cc1
2. COC(=O)[C@H](CC(C)C)Nc1c(O)c2c(c(O)c1Cl)C(=O)C=CC2=O
3. Fc1ccc(-c2sc(-c3cccs3)cc2Cc2cccs2)cc1

**Result**
8.35 µM
> 10 µM
> 100 µM

====

system: HCT-116 colon; test: NCI tumour cell line growth inhibition, 48 h
readout.label: TGI

Solved cases (5 shown):
INSERT INTO measurements (compound, readout_label, value_measured) VALUES
  ('Cn1c(=O)c(Oc2ccc(F)cc2F)cc2cnc(NC3CCS(=O)(=O)CC3)nc21', 'TGI', '> 25 µM'),
  ('COc1ccc(C2C=C(c3ccc4c(c3)OCO4)Oc3c2c(=O)oc2ccccc32)cc1OC (stereo not drawn)', 'TGI', '> 100 µM'),
  ('CN1CCC2(CC1)C(=NC1CCCCC1)NC(=S)N2c1ccccc1', 'TGI', '> 100 µM'),
  ('O=C(Nc1cccc2c1[nH]c1c(-c3ccccc3)nccc12)c1ccccc1[N+](=O)[O-]', 'TGI', '> 100 µM'),
  ('COc1cc(C(=O)Nc2cc(OC)c3ccn(C)c3c2)cc2c1C[C@]1(C)CC[C@@H](O)C(C)(C)[C@H]1O2', 'TGI', '17 µM');

Parameters: items (list). Returns: TGI for each item.
1. O=C(OCc1ccccc1)N(CCCCN(CCCNCc1ccccc1)C(=O)OCc1ccccc1)CCCNCc1ccccc1
2. CC(=O)NC1C(OCc2ccccc2)OC(COC(=O)CCCCCCCCCCNc2ccc([N+](=O)[O-])c3[nH]c4ccccc4c(=O)c23)C(O)C1OC(C)C(=O)NC(C)C(=O)NC(CCC(N)=O)C(=O)OCc1ccccc1 (stereo not drawn)
3. NCOC(=O)Cc1ccc(Br)cc1

**Result**
["0.384 µM", "> 100 µM", "> 100 µM"]

====

So I've got a bunch of compounds here, and I need their TGI values.
system: A549 NSCLC; assay: NCI tumour cell line growth inhibition, 48 h
*1 amine or outer side, *2 acyl side, *3 side chain or, on linkers, in order; H or OH if unused. Where a SMILES comes first, the peptide text is derived from it. [ ]: non-standard residue; d: D form. The star is where a group is joined. X31 = CC(=O)N(C)SCC(N[*:1])C(=O)[*:2]; Cbz = O=C(OCc1ccccc1)*; Bn = c1ccc(C*)cc1

Solved cases (5 shown):
INSERT INTO assay_data (compound, value_measured) VALUES
  ('COc1ccc(C2C=C(c3ccc4c(c3)OCO4)Oc3c2c(=O)oc2ccccc32)cc1OC (configuration not stated)', '> 100 µM'),
  ('CC(=O)Nc1ccc(COC(O)CN2CCCCC2)cc1[N+](=O)[O-] (configuration not stated)', '> 100 µM'),
  ('C=CCOC(=O)C1=C(CCC[C@@H](C)O[Si](C)(C)C(C)(C)C)N=C(N)N2[C@H](CCO)CC[C@@H]12', '22 µM'),
  ('O=C1c2ccccc2-c2c1c1ccccc1c(=O)n2CCCNCCCCNCCCN1C(=O)c2ccccc2C2C(=O)c3ccccc3C21 (configuration not stated)', '0.881 µM'),
  ('CCOC(=O)c1[nH]cc(C)c1-c1ccc2c(-c3ccccc3)nc3ccccc3n12', '18.5 µM');

Parameters: items (list). Returns: TGI for each item.
1. Cn1c(NCC(O)CN2CCCC2)cc(=O)n(C)c1=O (configuration not stated)
2. C=C(CN1CC2C[C@](C(=O)OC)(c3cc4ccccc4[nH]3)C1C(OC)C2OC)S(=O)(=O)c1ccccc1 (some centres not stated)
3. Cc1ccc(S(=O)OCC23CC4CC(CC(C4)C2)C3)cc1 (configuration not stated)
4. OCc1c[te]c(-c2ccccc2)c1
5. COc1cc(C2C(Cl)C(=O)N2NC(=O)c2ccc(N)cc2)cc(Br)c1O (configuration not stated)
6. CN(c1cn(C2CC[C@@H](CO)O2)c(=O)[nH]c1=O)C1CCCCC1 (some centres not stated)
7. COC1OC(COC(=O)c2cc(O)c(O)c(O)c2)C(OC(=O)c2cc(O)c(O)c(O)c2)C(OC(=O)c2cc(O)c(O)c(O)c2)C1OC(=O)c1cc(O)c(O)c(O)c1 (configuration not stated)
8. Nc1cc(=O)n(-c2ccccc2)c(=S)n1-c1ccccc1

**Result**
["> 100 µM", "12.6 µM", "> 100 µM", "> 100 µM", "42.8 µM", "> 100 µM", "> 100 µM", "> 100 µM"]

Parameters: items (list). Returns: TGI for each item.
1. COc1cc([C@@H]2C[C@H]2c2cc(SC)n[nH]2)cc(OC)c1OC
2. CC(=O)N(C)SCC(NC(=O)C(Cc1ccccc1)NC(=O)OCc1ccccc1)C(=O)NC(Cc1ccccc1)C(=O)NC(Cc1c[nH]c2ccccc12)C(=O)NC(CCCCNC(=O)OCc1ccccc1)C(=O)NC(C(=O)NC(CSN(C)C(C)=O)C(=O)NC(C(N)=O)C(C)OCc1ccccc1)C(C)OCc1ccccc1 (configuration not stated) (Cbz-F[X31]FWK(Cbz)T(Bn)[X31]T(Bn)-NH2; configuration not given here)

**Result**
["> 100 µM", "> 100 µM"]

Parameters: items (list). Returns: TGI for each item.
1. CC(=O)c1cc(C(=O)c2ccc3c(c2)Sc2ccccc2N3)c2cc(C)ccn12
2. O=C(O)c1ccc(C2SCc3nc4ccccc4n32)cc1 (configuration not stated)

**Result**
["> 100 µM", "> 100 µM"]

====

system: SF-539 CNS; assay: NCI tumour cell line growth inhibition, 48 h
So I've got a bunch of molecules here, and I need their TGI values.

Solved cases (5 shown):
INSERT INTO assay_data (molecule, value_measured) VALUES
  ('O=C1OCC2=C1C(c1ccc(Cl)c(Cl)c1)c1cc3c(cc1N2CCO)CCC3 (stereo unspecified)', '3.32 µM'),
  ('CC(=O)OC1CC2C3CCC4C[C@@H](NC(=O)C=C(C)C)CC[C@]4(C)C3CC[C@]2(C)[C@H]1C(C)N(C)C (stereo partly specified)', '2.62 µM'),
  ('Nc1nc2c(ncn2Cc2ccccc2CO)c(=O)[nH]1', '> 100 µM'),
  ('Cn1c(NCC(O)CN2CCCC2)cc(=O)n(C)c1=O (stereo unspecified)', '> 100 µM'),
  ('COc1ccc2nc3ccc(OC)cc3c(SCc3ccccc3)c2c1', '> 100 µM');

Parameters: items (list). Returns: TGI for each item.
1. O=c1cn[nH]c(=S)n1/N=C/c1c[nH]c2ccccc12
2. COC(=O)C(Cc1nc2ccccc2nc1C)/C(=N\NC(N)=O)C(=O)Nc1cccc([N+](=O)[O-])c1 (stereo unspecified)

**Result**
> 100 µM
> 100 µM
